Below, each of the binders is paired with its reported pKd value.
# TARGET ENTITY: T1, PUF4 RNA-binding domain (Saccharomyces cerevisiae, UniProt P25339 537-888)
# T1 sequence: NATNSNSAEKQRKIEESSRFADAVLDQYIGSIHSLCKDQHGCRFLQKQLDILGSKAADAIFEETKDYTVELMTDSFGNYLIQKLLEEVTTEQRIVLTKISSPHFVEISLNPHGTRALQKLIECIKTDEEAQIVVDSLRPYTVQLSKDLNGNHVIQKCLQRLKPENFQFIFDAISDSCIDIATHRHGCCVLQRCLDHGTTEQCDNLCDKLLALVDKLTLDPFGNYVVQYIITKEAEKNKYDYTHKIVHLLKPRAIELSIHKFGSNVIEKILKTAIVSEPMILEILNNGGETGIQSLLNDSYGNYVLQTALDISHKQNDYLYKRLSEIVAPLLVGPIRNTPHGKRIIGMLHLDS
# ASSAY SUMMARY: Mg; RNA-MaP; 20 mM Na-HEPES pH 7.4, 30 mM KOAc, 0.75 mM MgCl2, 0.1% Tween-20, 5% glycerol, 0.1 mg/mL BSA, 2 mM DTT; 25 C; 0.0125-409.6 nM protein
# RUN CONDITIONS: tags: N-His6-TEV cleaved; C-SNAP kept, Cy3B-labelled; label: tethered on chip by stalled RNA polymerase
Please note pKd is a logarithmic value: minus log10 of concentration in mol/L. Answer with that number alone.

Reference set, count: 6
Id_ii_S2_P4E.2_K4.1_C4.2_[C-2T]_H4.1_A4.1_F4.1_T4.2_[G10C] (ssRNA) RNA: UUUGAUUAAUAUGAUAUCGUUCUUUCUUUUGUAUAUUACUUUCUUUCUCGAUAUCAUAUUAAUCUUU	9.12
Ib_S2_P4E.1_K4.1_C4.1_H4.1_[T1A]_A4.1_[T5A]_F4.1_T4.1 (ssRNA) RNA: UUUGAUUAAUAUGAUAUCGUUCUUUCUAGUAAAUUAUUCUUUCUCGAUAUCAUAUUAAUCUUU	6.18
UCUCUUCGUGUAUUAUUAUUUCUCUU (ssRNA) [Id_ii_S1_P5E.2_K5.1_C5.2_[T-1G]_H5.1_A5.1_F5.1_T5.2_[A12T]]	8.13
UCUCUUUGUCUAUAAUCUCUU (ssRNA) [Ib_S1_P4E.1_K4.1_C4.1_H4.1_[A4C]_A4.1_F4.1_[T8A]_T4.1]	5.79
Ic_S4_P5E.1_K5.1_C5.1_H5.1_A5.1_[T5C]_[T6C]_[A7T]_F5.1_[T8C]_[T9C]_T5.1 (ssRNA) RNA: UUUGACAACUGAUCGUUCUUUCUUGUACCUCCAUUCUUUCUCGAUCAGUUGUCUUU	6.70
Ic_S4_P5E.1_K5.1_C5.1_H5.1_A5.1_[T6A]_[A7T]_F5.1_[T9C]_[A10C]_T5.1 (ssRNA) RNA: UUUGACAACUGAUCGUUCUUUCUUGUAUAUUCCUUCUUUCUCGAUCAGUUGUCUUU	8.43

Request: Report pKd for Ib_S4_P4E.1_K4.1_C4.1_H4.1_[G2T]_A4.1_[T5C]_F4.1_T4.1 (ssRNA) RNA: UUUGACAACUGAUCGUUCUUUCUUUUACAUUAUUCUUUCUCGAUCAGUUGUCUUU
Result: 6.45

Request: Report pKd for Id_ii_S4_P3E.3_K3.2_C3.2_[C-2T]_[T-1C]_H3.2_A3.1_F3.1_T3.2_[T9A]_[A10T] (ssRNA) RNA: UUUGACAACUGAUCGUUCUUUCUUCUAUAUAUAAUUUCUUUCUCGAUCAGUUGUCUUU
Result: 6.82

Request: Report pKd for UCUCUUUGUAUAUGACUCUCUU (ssRNA) [Ic_S1_P5E.1_K5.1_C5.1_H5.1_A5.1_[T6A]_[A7T]_F5.1_[T8G]_[T9A]_[A10C]_T5.1]
Result: 7.79

Request: Report pKd for UCUCUUUGUAUCUUAUCUCUU (ssRNA) [Ic_S1_P4E.1_K4.1_C4.1_H4.1_A4.1_[A6C]_F4.1_T4.1]
Result: 8.39

Request: Report pKd for Ic_S2_P4E.1_K4.1_C4.1_H4.1_A4.1_[T5C]_F4.1_[T8C]_[A9G]_T4.1 (ssRNA) RNA: UUUGAUUAAUAUGAUAUCGUUCUUUCUUGUACAUCGUUCUUUCUCGAUAUCAUAUUAAUCUUU
Result: 7.65

Request: Report pKd for UCUCUUUGUAUUACUUCUCUU (ssRNA) [Ic_S1_P4E.1_K4.1_C4.1_H4.1_A4.1_[A6T]_[T7A]_F4.1_[T8C]_[A9T]_T4.1]
Result: 7.30

Request: Report pKd for UCUCUUUGUACCCCUUCUCUU (ssRNA) [Ic_S1_P4E.1_K4.1_C4.1_H4.1_A4.1_[T5C]_[A6C]_[T7C]_F4.1_[T8C]_[A9T]_T4.1]
Result: 6.09

Request: Report pKd for UCUCUUCAUGUAUAUUAAAUCUCUU (ssRNA) [Id_ii_S1_P4E.2_K4.1_C4.2_[T-1A]_H4.1_A4.1_F4.1_T4.2_[G10A]_[T11A]]
Result: 8.80

Request: Report pKd for Ie_S2_P5E.1_K5.1_C5.1_H5.1_A5.1_[+5TCC]_F5.1_T5.1 (ssRNA) RNA: UUUGAUUAAUAUGAUAUCGUUCUUUCUUGUAUUCCUAUUAUUCUUUCUCGAUAUCAUAUUAAUCUUU
Result: 8.34

Request: Report pKd for Ic_S4_P4E.1_K4.1_C4.1_H4.1_A4.1_[T5A]_[A6C]_F4.1_[T8G]_[A9T]_T4.1 (ssRNA) RNA: UUUGACAACUGAUCGUUCUUUCUUGUAACUGUUUCUUUCUCGAUCAGUUGUCUUU
Result: 7.02

Request: Report pKd for Ic_S4_P5E.1_K5.1_C5.1_H5.1_A5.1_[T5C]_F5.1_[T8C]_T5.1 (ssRNA) RNA: UUUGACAACUGAUCGUUCUUUCUUGUACUACUAUUCUUUCUCGAUCAGUUGUCUUU
Result: 8.50

Request: Report pKd for Ie_S2_P4E.1_K4.1_C4.1_H4.1_[+4CTCTC]_A4.1_F4.1_T4.1 (ssRNA) RNA: UUUGAUUAAUAUGAUAUCGUUCUUUCUUGUACUCUCUAUUAUUCUUUCUCGAUAUCAUAUUAAUCUUU
Result: 8.19

Request: Report pKd for Ib_S2_P3E.1_K3.1_C3.1_H3.1_A3.1_[T5A]_[A6C]_F3.1_T3.1 (ssRNA) RNA: UUUGAUUAAUAUGAUAUCGUUCUUUCUUGUAACUAUUCUUUCUCGAUAUCAUAUUAAUCUUU
Result: 7.18

Request: Report pKd for UCUCUUCUUGCCCUUAUAUAUAUCUCUU (ssRNA) [Ie_S1_P3E.2_K3.1_C3.2_H3.1_[+2CCCT]_A3.1_F3.1_T3.2]
Result: 5.93

Request: Report pKd for Id_ii_S4_P4E.2_K4.1_C4.2_[T-1A]_H4.1_A4.1_F4.1_T4.2_[T11G] (ssRNA) RNA: UUUGACAACUGAUCGUUCUUUCUCAUGUAUAUUAGGUUCUUUCUCGAUCAGUUGUCUUU
Result: 8.96
